- target-of-assay: PARP7 (Homo sapiens, UniProt Q7Z3E1)
- Construct: purchased BPS 80527
- test-protocol: PARP7 TR-FRET binding inhibition (displacement of probe RBN011147)
- test-parameters: TR-FRET, Biotin-labeled probe RBN011147; read-out: PARP7 binding inhibition IC50
pIC50: −log10 of the molar value.
measure: pIC50

>  <compound>
O=C(NCCC[C@@H](Nc1cn[nH]c(=O)c1C(F)(F)F)C(=O)N1CCC2(CC2)C1)c1ccc(-c2ncc(C(F)(F)F)s2)cc1

>  <pIC50>
> 8.00

$$$$
>  <compound>
CC1CN(C(=O)[C@@H](CCCNC(=O)c2ccc(-c3ncc(C(F)(F)F)s3)cc2)Nc2cn[nH]c(=O)c2C(F)(F)F)C1

>  <pIC50>
> 8.00

$$$$
>  <compound>
CC(CCCNC(=O)c1cccc2c1CCN2c1ncc(C(F)(F)F)cn1)Nc1cn[nH]c(=O)c1C(F)(F)F (stereo not drawn)

>  <pIC50>
7.52 to 8.00

$$$$
>  <compound>
CC(CCCNC(=O)c1ccc(-n2cc(C(F)(F)F)cn2)cc1F)Nc1cn[nH]c(=O)c1C(F)(F)F (stereo not drawn)

>  <pIC50>
> 8.00

$$$$
>  <compound>
CC1(F)CN(C(=O)[C@@H](CCCNC(=O)c2ccc(-c3ncc(C(F)(F)F)s3)cc2)Nc2cn[nH]c(=O)c2C(F)(F)F)C1

>  <pIC50>
7.52 to 8.00

$$$$

Could you tell me which pIC50 is on file for Cc1c(-c2cnc(C(F)(F)F)s2)ncn(CCCC(C)Nc2cn[nH]c(=O)c2C(F)(F)F)c1=O (stereo not drawn) ?
7.00 to 7.52

Suppose we examine the compound CC(CCCNC(=O)c1ccc(-c2cc(C(F)(F)F)nn2C)cc1)Nc1cn[nH]c(=O)c1C(F)(F)F (stereo not drawn) ; what pIC50 value has been reported?
< 7.00

Field request: pIC50 | item: CC(CCCNC(=O)c1ccc(-c2nc(C(F)(F)F)cs2)cc1)Nc1cn[nH]c(=O)c1C(F)(F)F (stereo not drawn)
7.00 to 7.52

Query: pIC50; subject: O=C(NCCc1n[nH]c(=O)c(C(F)(F)F)c1N1CC2(CCC2)C1)c1cnc(-c2ncc(C(F)(F)F)cn2)cn1
< 7.00

Requested field: pIC50. Item: CC1(C#N)CN(C(=O)[C@@H](CCCNC(=O)c2ccc(-c3ncc(C(F)(F)F)s3)cc2)Nc2cn[nH]c(=O)c2C(F)(F)F)C1
7.52 to 8.00

Which pIC50 value is on record for CC(CCCNC(=O)c1ccc(-c2cc(-c3cccnc3)sn2)cc1)Nc1cn[nH]c(=O)c1C(F)(F)F (stereo not drawn) ?
> 8.00

pIC50 for CC(CCCNC(=O)c1cnc(-c2cc(C(F)(F)F)sn2)c(F)c1)Nc1cn[nH]c(=O)c1C(F)(F)F (stereo not drawn) ?
> 8.00

====

- target-of-assay: PARP7 (Homo sapiens)
- Construct: purchased BPS 80527
- Sequence (Q7Z3E1 1-657): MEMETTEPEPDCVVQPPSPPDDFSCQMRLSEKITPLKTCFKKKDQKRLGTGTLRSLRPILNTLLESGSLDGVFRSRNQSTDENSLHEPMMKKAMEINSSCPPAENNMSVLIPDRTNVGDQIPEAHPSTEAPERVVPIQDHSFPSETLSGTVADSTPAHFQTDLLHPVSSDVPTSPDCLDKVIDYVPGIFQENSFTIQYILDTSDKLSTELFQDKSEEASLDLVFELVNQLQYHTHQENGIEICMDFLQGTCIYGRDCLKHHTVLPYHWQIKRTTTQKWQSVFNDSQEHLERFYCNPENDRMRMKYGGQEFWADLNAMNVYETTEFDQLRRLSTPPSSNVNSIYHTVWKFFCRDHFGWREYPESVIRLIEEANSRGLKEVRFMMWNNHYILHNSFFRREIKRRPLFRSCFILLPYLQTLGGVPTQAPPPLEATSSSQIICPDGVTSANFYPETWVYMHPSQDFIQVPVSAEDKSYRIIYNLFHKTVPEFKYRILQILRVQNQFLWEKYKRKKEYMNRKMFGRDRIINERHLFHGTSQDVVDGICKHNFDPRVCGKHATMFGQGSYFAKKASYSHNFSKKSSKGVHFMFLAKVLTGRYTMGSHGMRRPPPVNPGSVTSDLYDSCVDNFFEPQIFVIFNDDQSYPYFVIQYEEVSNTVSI
- test-protocol: PARP7 TR-FRET binding inhibition (displacement of probe RBN011147)
- test-parameters: TR-FRET, Biotin-labeled probe RBN011147; read-out: PARP7 binding inhibition IC50
measure: IC50

Please review the entries below; each comes with its answer.
>  <compound>
Cc1cc(-c2ccc(C(=O)NCCCC(C)Nc3cn[nH]c(=O)c3C(F)(F)F)cc2)ncc1C#N (stereo not shown)

>  <recorded-result>
< 10 nM

$$$$
>  <compound>
CC(CCCNC(=O)c1cnc(-c2ncc(C(F)F)s2)cn1)Nc1cc[nH]c(=O)c1C(F)(F)F (stereo not shown)

>  <recorded-result>
10 to 30 nM

$$$$

Recorded IC50 for CC(CCCNC(=O)c1cnc(-c2ncc(C(F)(F)F)cn2)cn1)Nc1cc[nH]c(=O)c1C#N (stereo not shown) , please?
30 to 100 nM

Reported IC50 for CC(CCCNC(=O)c1ccc(-c2csc(C(F)(F)F)n2)nc1)Nc1cn[nH]c(=O)c1C(F)(F)F (stereo not shown) : what is it?
< 10 nM

====

- target-of-assay: PARP1 (Homo sapiens)
- Sequence (P09874 whole entry, species assumed): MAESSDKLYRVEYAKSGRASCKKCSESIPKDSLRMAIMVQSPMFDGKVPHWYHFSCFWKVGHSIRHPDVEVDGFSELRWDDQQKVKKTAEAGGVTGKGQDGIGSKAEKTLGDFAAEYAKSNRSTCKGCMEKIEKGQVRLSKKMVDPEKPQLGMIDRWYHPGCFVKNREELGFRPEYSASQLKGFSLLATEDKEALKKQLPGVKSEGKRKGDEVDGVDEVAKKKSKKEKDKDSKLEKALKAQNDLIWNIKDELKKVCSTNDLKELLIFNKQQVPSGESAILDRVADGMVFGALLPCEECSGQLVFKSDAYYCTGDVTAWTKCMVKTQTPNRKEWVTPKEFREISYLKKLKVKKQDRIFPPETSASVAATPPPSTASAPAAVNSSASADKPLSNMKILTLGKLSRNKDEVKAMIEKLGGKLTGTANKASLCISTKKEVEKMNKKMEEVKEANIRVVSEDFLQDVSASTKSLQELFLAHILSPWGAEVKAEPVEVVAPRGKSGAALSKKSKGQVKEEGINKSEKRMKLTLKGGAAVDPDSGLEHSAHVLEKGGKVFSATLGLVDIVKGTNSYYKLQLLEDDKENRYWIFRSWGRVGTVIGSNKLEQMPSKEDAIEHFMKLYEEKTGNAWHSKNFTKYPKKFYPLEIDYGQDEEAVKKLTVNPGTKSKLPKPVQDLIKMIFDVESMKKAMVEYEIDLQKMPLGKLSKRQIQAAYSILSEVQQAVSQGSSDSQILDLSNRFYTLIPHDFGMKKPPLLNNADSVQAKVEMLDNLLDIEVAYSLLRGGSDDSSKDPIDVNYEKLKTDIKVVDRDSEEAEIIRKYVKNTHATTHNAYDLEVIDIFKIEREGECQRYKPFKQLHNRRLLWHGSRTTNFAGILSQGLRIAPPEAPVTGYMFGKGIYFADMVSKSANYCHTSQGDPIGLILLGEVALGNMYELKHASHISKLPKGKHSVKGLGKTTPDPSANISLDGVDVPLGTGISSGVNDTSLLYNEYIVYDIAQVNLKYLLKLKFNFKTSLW
- test-protocol: PARP1 in vitro enzyme activity inhibition (chemiluminescence assay)
- Type: biochemical
- test-parameters: read-out: PARP1 activity inhibition IC50; 5 nM of PARP1 solution, method of test example 1
pIC50: −log10 of the molar value.
measure: pIC50

# query: pIC50 | item O=C(CCc1c[nH]c(=O)c(C(F)(F)F)c1N1CC2(CCC2)C1)Nc1ccc(-c2ncc(C(F)(F)F)cn2)cn1 | system: PARP1 (Homo sapiens)
< 7.00

====

- target-of-assay: PARP7 (Homo sapiens)
- Construct: purchased BPS 80527
- test-protocol: PARP7 in vitro enzyme activity inhibition (chemiluminescence assay, selectivity test)
- Type: biochemical
- test-parameters: read-out: PARP7 activity inhibition IC50; 6.25 nM of PARP7 solution, method of test example 1
measure: IC50

I would be grateful if you could share the reported IC50 for O=C(CCc1c[nH]c(=O)c(C(F)(F)F)c1N1CC2(CCC2)C1)Nc1ccc(-c2ncc(C(F)(F)F)cn2)cn1 [Example 70] .
3 to 10 nM

====

- Tested on: NCI-H1373 cells
- test-protocol: Inhibition on NCI-H1373 cell proliferation (Cell-Titer-Glo)
- Type: cell-based
- test-parameters: Homo sapiens, 144 h; NCI-H1373 cells, incubation for 6 days, Cell-Titer-Glo; read-out: NCI-H1373 cell proliferation inhibition IC50
pIC50: −log10 of the molar value.
Below is a list of entries, each paired with its recorded pIC50 value.

Some compounds with known pIC50 results, for comparison:
>  <compound>
CC(CCNC(=O)c1n[nH]c2cc(-c3ncc(C(F)(F)F)cn3)ccc12)Nc1cn[nH]c(=O)c1C(F)(F)F (centres unmarked)

>  <pIC50>
< 5.52

$$$$
>  <compound>
Cc1nc(-c2ccc(C(=O)NCCCC(C)Nc3cn[nH]c(=O)c3C(F)(F)F)cc2)sc1C (centres unmarked)

>  <pIC50>
5.52 to 6.00

$$$$

Suppose we examine the compound O=C(NCCCC(Nc1cn[nH]c(=O)c1C(F)(F)F)C(=O)N1CCCC1)c1ccc(-c2ncc(C(F)(F)F)s2)cc1 (centres unmarked) ; what pIC50 value has been reported?
> 6.52

What value of pIC50 has been recorded for this entry: CC(CCCNC(=O)c1ncc(-c2ncc(N3CC(F)C3)cn2)cc1F)Nc1cn[nH]c(=O)c1C(F)(F)F (centres unmarked)
6.00 to 6.52

Need pIC50 of C[C@@H]1CCN(C(=O)[C@@H](CCCNC(=O)c2ccc(-c3ncc(C(F)(F)F)s3)cc2)Nc2cn[nH]c(=O)c2C(F)(F)F)C1 , thanks.
> 6.52

Param item = CC(CCCNC(=O)c1cccc2c1CCN2c1ncc(C(F)(F)F)cn1)Nc1cn[nH]c(=O)c1C(F)(F)F (centres unmarked) ; retrieve measured pIC50.
< 5.52

What pIC50 value was documented for this compound, CC(CCCNC(=O)c1ccc(-c2cc(C(F)(F)F)sn2)nc1)Nc1cn[nH]c(=O)c1C(F)(F)F (centres unmarked) ?
5.52 to 6.00

====

- Test system: NCI-H1373 cells
- test-protocol: Inhibition on NCI-H1373 cell proliferation (Cell-Titer-Glo)
- Assay type: cell-based
- test-parameters: Homo sapiens, 144 h; NCI-H1373 cells, incubation for 6 days, Cell-Titer-Glo; read-out: NCI-H1373 cell proliferation inhibition IC50
pIC50: −log10 of the molar value.
measure: pIC50

Worked cases, pIC50 given:
>  <structure-notation>
CC1(C#N)CN(C(=O)[C@@H](CCCNC(=O)c2ccc(-c3ncc(C(F)(F)F)s3)cc2)Nc2cn[nH]c(=O)c2C(F)(F)F)C1

>  <recorded-result>
< 5.52

$$$$
>  <structure-notation>
COC1CCN(C(=O)[C@@H](CCCNC(=O)c2ccc(-c3ncc(C(F)(F)F)s3)cc2)Nc2cn[nH]c(=O)c2C(F)(F)F)CC1

>  <recorded-result>
6.00 to 6.52

$$$$

Next up:
Can you look up the measured pIC50 of O=C(CCc1c[nH]c(=O)c(C(F)(F)F)c1N1CC2(CCC2)C1)Nc1ccc(-c2ncc(C(F)(F)F)cn2)cn1 for me?
< 5.52
